- EXPERIMENT_DESCRIPTION: chemical genetic growth profiling, strain panel (AID 1159580);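 further: tested at 20 µM; growth read once vehicle control cultures reached saturation at 30 °C; 1 = growth at the plate median or of vehicle wells; lower values mean less growth of the strain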
- REPORTED_CONDITIONS: S. cerevisiae deletion strains, growth OD, locus YJL115W, strain asf1, active compounds read low
The whole screen tested about 5,500 compounds, of which about 2,000 (36%) were called active. Not shown: some 18% with an inconclusive outcome. Some of the results follow.
ENDPOINT_LABEL: normalized growth
Reply with the value as a number alone.

Data request: What value of normalized growth has been recorded for this entry: CC(=O)OCC(OC(C)=O)C(OC(C)=O)C(OC(C)=O)C(OC(C)=O)C(COC(C)=O)OC(C)=O (stereo not given)
Data returned: 0.975

Data request: What value of normalized growth has been recorded for this entry: C=C1C(=O)O[C@@H]2C3O[C@]3(C)CC/C=C(\C)CC[C@@H]12 (stereo not given in full)
Data returned: 0.991

Data request: What value of normalized growth has been recorded for this entry: CCN(CC)C(=O)c1cccc(C)c1
Data returned: 1.06

Data request: What value of normalized growth has been recorded for this entry: CC(=O)OCC[C@H](C)CCC=C(C)C
Data returned: 0.991

Data request: What value of normalized growth has been recorded for this entry: C=C1C(=O)OC2CC1C(OC(C)=O)C/C(C)=C/CC/C(C)=C/CC[C@]2(C)O (stereo not given in full)
Data returned: 0.982

Data request: What value of normalized growth has been recorded for this entry: C=CCCCCCCCCCCCC(O)CC(O)COC(C)=O (stereo not given) (tested in a mixture with another compound)
Data returned: 0.953

Data request: What value of normalized growth has been recorded for this entry: CC(C)C(C)/C=C/C(C)[C@H]1CCC2C3=CCC4CC(=O)CC[C@]4(C)C3CC[C@@]21C (stereo not given in full)
Data returned: 0.99

Data request: What value of normalized growth has been recorded for this entry: C[C@H]1CC[C@@H](C(C)(C)O)CC2=C1CC[C@@H]2C
Data returned: 0.994

Data request: What value of normalized growth has been recorded for this entry: CC(C)C(C)/C=C/C(C)C1CCC2C3=CC=C4CC(O)CCC4(C)C3CCC21C (stereo not given)
Data returned: 1.01

Data request: What value of normalized growth has been recorded for this entry: CC(=O)OC1CCC2(C)C(=CC=C3C2CCC2(C)C3CCC2C(C)/C=C/C(C)C(C)C)C1(C)C (stereo not given)
Data returned: 1.03

====

- EXPERIMENT_DESCRIPTION: chemical genetic growth profiling, strain panel (AID 1159580);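 further: tested at 20 µM; growth read once vehicle control cultures reached saturation at 30 °C; 1 = growth at the plate median or of vehicle wells; lower values mean less growth of the strain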
- REPORTED_CONDITIONS: S. cerevisiae deletion strains, growth OD, locus YLL041C, strain sdh2, active compounds read low
Screen size: about 5,500 compounds; about 2,000 (36%) were called active. Roughly 18% stayed inconclusive and do not appear here. This is one part of the list.
ENDPOINT_LABEL: normalized growth
Reply with the value as a number alone.

Data request: What value of normalized growth has been recorded for this entry: C[C@H]1COC2=C1C(=O)C(=O)c1c2ccc2c1CCCC2(C)C
Data returned: 0.901

Data request: What value of normalized growth has been recorded for this entry: C=CCSCC1Nc2cc(Cl)c(S(N)(=O)=O)cc2S(=O)(=O)N1 (stereo not given)
Data returned: 1

Data request: What value of normalized growth has been recorded for this entry: CC1C[C@H]2CC(=O)[C@H]3CCCN4CCC[C@H]2[C@]34C1 (stereo not given in full)
Data returned: 1.01

Data request: What value of normalized growth has been recorded for this entry: COC(=O)[C@@H]1OC(=O)[C@H]2O[C@@]23[C@@]1(C)CCC1[C@@]2(C)CCC(=O)C(C)(C)C2C[C@@H](OC(C)=O)[C@]13C (stereo not given in full)
Data returned: 0.98

Data request: What value of normalized growth has been recorded for this entry: OC(Cn1cncn1)(Cn1cncn1)c1ccc(F)cc1F
Data returned: 1.01

====

- EXPERIMENT_DESCRIPTION: chemical genetic growth profiling, strain panel (AID 1159580);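 further: tested at 20 µM; growth read once vehicle control cultures reached saturation at 30 °C; 1 = growth at the plate median or of vehicle wells; lower values mean less growth of the strain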
- REPORTED_CONDITIONS: S. cerevisiae deletion strains, growth OD, locus YHR079C, strain IRE1
Screen size: about 5,500 compounds; about 2,000 (36%) were called active. Roughly 18% stayed inconclusive and do not appear here. No stated cut-off is given here; in the data, active means normalized growth mostly below about 0.91 (no sharp cut-off); inconclusive means no clear call, values can overlap the other calls; inactive means mostly above about 0.92. The list shows a part of the results.
Respond using exactly one of the listed classes: YES for active, NO for inactive

Data request: Given CCCCOC(=O)c1ccccc1C(=O)OCCCC , state the outcome it received in this test.
Data returned: NO

Data request: Given COc1cc(-c2coc3cc(OCc4ccccc4)c(OC)c(O)c3c2=O)cc(O)c1OC , state the outcome it received in this test.
Data returned: NO

Data request: Given CC(C)(C)CC(C)(C)c1ccc(O)c(Cc2ccc(Cl)cc2Cl)c1 , state the outcome it received in this test.
Data returned: NO

Data request: Given O=c1[nH]oc2c1CCNC2 , state the outcome it received in this test.
Data returned: NO

Data request: Given COc1ccc2c(c1OC)C(=O)OC2[C@H]1c2c(cc3c(c2OC)OCO3)CCN1C (stereo partly drawn) , state the outcome it received in this test.
Data returned: NO

Data request: Given CCCCCCCCCCOc1cc2c(=O)c(C(=O)OCC)c[nH]c2cc1OCC , state the outcome it received in this test.
Data returned: NO

Data request: Given Cc1ccc(NS(=O)(=O)c2ccc(Cl)cc2)c(N=Cc2cc(Cl)cc(Cl)c2O)c1 , state the outcome it received in this test.
Data returned: YES

Data request: Given CC1(C)C2(Cl)C(Cl)C(Cl)C(Cl)(C(Cl)Cl)C1(Cl)C2Cl (stereo not drawn) , state the outcome it received in this test.
Data returned: NO

Data request: Given C=C1CCC(C2CC(=O)OC2=O)C(=O)CCC2C1CC2(C)C (stereo not drawn) , state the outcome it received in this test.
Data returned: NO

Data request: Given CCCCNc1ccc(C(=O)OCCN(C)C)cc1 , state the outcome it received in this test.
Data returned: NO

Data request: Given COc1cc(-c2coc3cc(OC)c(OC)c(OC)c3c2=O)cc(OC)c1OC , state the outcome it received in this test.
Data returned: NO

Data request: Given Oc1ccc(Cl)cc1Cc1cc(Cl)ccc1O , state the outcome it received in this test.
Data returned: YES

Data request: Given COC(=O)[C@@H]1OC(=O)[C@H]2O[C@@]23[C@@]1(C)CCC1[C@@]2(C)CCC(=O)C(C)(C)C2C[C@@H](OC(C)=O)[C@]13C (stereo partly drawn) , state the outcome it received in this test.
Data returned: NO

Data request: Given C/C1=C\CCC(=O)C2CC(C)(C)C2CC1 (stereo not drawn) , state the outcome it received in this test.
Data returned: NO

Data request: Given CCCCCCOc1ccccc1C(N)=O , state the outcome it received in this test.
Data returned: NO

Data request: Given CCCC[C@@H](CC)COC(=O)c1ccccc1O , state the outcome it received in this test.
Data returned: NO

Data request: Given CCCCC(=O)Oc1ccccc1C(=O)O , state the outcome it received in this test.
Data returned: NO

Data request: Given C[C@H]1CC[C@@H](C(C)(C)O)CC2=C1CC[C@@H]2C , state the outcome it received in this test.
Data returned: YES

Data request: Given CCCC(=O)O[C@]1(C(=O)CO)CCC2[C@@H]3CCC4=CC(=O)CC[C@]4(C)C3[C@@H](O)C[C@@]21C (stereo partly drawn) , state the outcome it received in this test.
Data returned: NO

Data request: Given OCc1ccccc1O , state the outcome it received in this test.
Data returned: NO

Data request: Given FC(F)(F)c1ccnc(N2CCCN(C(=S)Nc3ccc(Cl)cc3Cl)CC2)n1 , state the outcome it received in this test.
Data returned: NO

Data request: Given O=C1C=C2C=C[C@@H]3C[C@@]2(O1)[C@H]1CCCCN31 , state the outcome it received in this test.
Data returned: NO

Data request: Given Cn1c(=O)c2[nH]cnc2n(C)c1=O , state the outcome it received in this test.
Data returned: NO

====

- EXPERIMENT_DESCRIPTION: chemical genetic growth profiling, strain panel (AID 1159580);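 further: tested at 20 µM; growth read once vehicle control cultures reached saturation at 30 °C; 1 = growth at the plate median or of vehicle wells; lower values mean less growth of the strain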
- REPORTED_CONDITIONS: S. cerevisiae deletion strains, growth OD, locus YHR027C, strain rpn1, active compounds read low
Screen size: about 5,500 compounds; about 2,000 (36%) were called active. About 18% were inconclusive and are not listed. The list shows a part of the results.
ENDPOINT_LABEL: normalized growth
Reply with the value as a number alone.

Data request: What value of normalized growth has been recorded for this entry: C=CCSCC1Nc2cc(Cl)c(S(N)(=O)=O)cc2S(=O)(=O)N1 (stereo not drawn)
Data returned: 1.01

Data request: What value of normalized growth has been recorded for this entry: Oc1ccc(Cl)cc1Cc1cc(Cl)ccc1O
Data returned: 0.0641

Data request: What value of normalized growth has been recorded for this entry: CC(C)(Oc1ccc(C2CC2(Cl)Cl)cc1)C(=O)O (stereo not drawn)
Data returned: 0.995

Data request: What value of normalized growth has been recorded for this entry: C=C1CCC2C(CC2(C)C)C(=O)CCC1O (stereo not drawn)
Data returned: 1

Data request: What value of normalized growth has been recorded for this entry: C=C1CCC2C(CC2(C)C)C(=C)CC/C1=N\O (stereo not drawn)
Data returned: 0.999

Data request: What value of normalized growth has been recorded for this entry: OC(Cn1cncn1)(Cn1cncn1)c1ccc(F)cc1F
Data returned: 1.01

Data request: What value of normalized growth has been recorded for this entry: NC(=O)c1cccc(N)c1
Data returned: 0.974

Data request: What value of normalized growth has been recorded for this entry: Cc1coc2c1C(=O)C(=O)c1c-2ccc2c1CCCC2(C)C
Data returned: 0.957

Data request: What value of normalized growth has been recorded for this entry: COC(=O)C1=CCCN(C)C1
Data returned: 0.996

Data request: What value of normalized growth has been recorded for this entry: OCc1ccccc1O
Data returned: 1.02

Data request: What value of normalized growth has been recorded for this entry: C=C1C(=O)OC2CC1C(OC(C)=O)C/C(C)=C/CC/C(C)=C/CC[C@]2(C)O (stereo partly drawn)
Data returned: 0.99

Data request: What value of normalized growth has been recorded for this entry: Cc1c(S(=O)(=O)O)oc2c1C(=O)C(=O)c1c-2ccc2c1CCCC2(C)C
Data returned: 0.962

Data request: What value of normalized growth has been recorded for this entry: C[C@H]1COC2=C1C(=O)C(=O)c1c2ccc2c1CCCC2(C)C
Data returned: 0.872
